Each recorded value in this set is attributed to PubChem BioAssay AID1963845.

Quick list: viability, T/C per entry.
System: 429239-143-T-J1-PDC complex spheroid viability
Assay Details: Anticancer human tumor 429239-143-T-J1-PDC patient-derived small cell lung carcinoma cell line growth inhibition [POLQ]
Conditions: second compound 1 µM; first compound 0.316 µM; stronger effect = lower value
Endpoint Label: viability, T/C (%)

>>> result_value("C=CC(=O)N1CCN(c2nc(=O)n(-c3c(C)ccnc3C(C)C)c3nc(-c4c(O)cccc4F)c(F)cc23)C(C)C1 (stereo unspecified) + Nc1ccc(C#CCN(C(=O)Cc2ncc(C(F)(F)F)cc2C(F)(F)F)c2ccc(F)cc2)nn1")
99.3
>>> result_value("O=c1[nH]cc(F)c(=O)[nH]1 + COC1C(OC(N)=O)C(O)C(Oc2ccc3c(O)c(NC(=O)c4ccc(O)c(CC=C(C)C)c4)c(=O)oc3c2C)OC1(C)C")
96.4
>>> result_value("COc1ccc([C@@H](O)c2cc(-c3ncnc4cc(N5CCOCC5)ccc34)c(F)cc2Cl)nn1 + Nc1ccc(C#CCN(C(=O)Cc2ncc(C(F)(F)F)cc2C(F)(F)F)c2ccc(F)cc2)nn1")
97
>>> result_value("O=C(c1cc(Cc2n[nH]c(=O)c3ccccc23)ccc1F)N1CCN(C(=O)C2CC2)CC1 + Cc1cccc(N(C)C(=O)C2C(O)CCN2c2nc(C)cc(C(F)(F)F)c2C#N)c1")
80.6
>>> result_value("CCc1cc2c(N3CCc4c(cc(Cn5ccnc5)cc4-c4cn(C)nc4C(F)(F)F)C3=O)cc(C)nc2c(OC)n1 + COC1C(OC(N)=O)C(O)C(Oc2ccc3c(O)c(NC(=O)c4ccc(O)c(CC=C(C)C)c4)c(=O)oc3c2C)OC1(C)C")
65.8
>>> result_value("Nc1ccn(C2OC(CO)C(O)C2(F)F)c(=O)n1 (stereo unspecified) + Nc1ccc(C#CCN(C(=O)Cc2ncc(C(F)(F)F)cc2C(F)(F)F)c2ccc(F)cc2)nn1")
7.19
>>> result_value("CC1COCCN1c1cc(C2(O)CC3CCC(C2)O3)c2cnn(-c3ccn[nH]3)c2n1 (stereo unspecified) + Nc1ccc(C#CCN(C(=O)Cc2ncc(C(F)(F)F)cc2C(F)(F)F)c2ccc(F)cc2)nn1")
46.8
>>> result_value("CC(C)n1c(=O)n(C)c2cnc3cc(F)c(-c4ccc(OCCCN5CCCCC5)nc4)cc3c21 + COC1C(OC(N)=O)C(O)C(Oc2ccc3c(O)c(NC(=O)c4ccc(O)c(CC=C(C)C)c4)c(=O)oc3c2C)OC1(C)C")
91.5
>>> result_value("O=C(c1cc(Cc2n[nH]c(=O)c3ccccc23)ccc1F)N1CCN(C(=O)C2CC2)CC1 + COC1C(OC(N)=O)C(O)C(Oc2ccc3c(O)c(NC(=O)c4ccc(O)c(CC=C(C)C)c4)c(=O)oc3c2C)OC1(C)C")
81.2
>>> result_value("Nc1ccn(C2OC(CO)C(O)C2(F)F)c(=O)n1 (stereo unspecified) + COC1C(OC(N)=O)C(O)C(Oc2ccc3c(O)c(NC(=O)c4ccc(O)c(CC=C(C)C)c4)c(=O)oc3c2C)OC1(C)C")
17.8
>>> result_value("O=C(Nc1ccc(O)c(NS(=O)(=O)c2ccc(F)cc2)c1)c1ccc(-c2ccccc2)cc1 + Cc1cccc(N(C)C(=O)C2C(O)CCN2c2nc(C)cc(C(F)(F)F)c2C#N)c1")
94.1
>>> result_value("CCc1cc2c(N3CCc4c(cc(Cn5ccnc5)cc4-c4cn(C)nc4C(F)(F)F)C3=O)cc(C)nc2c(OC)n1 + Cc1cccc(N(C)C(=O)C2C(O)CCN2c2nc(C)cc(C(F)(F)F)c2C#N)c1")
91.8
>>> result_value("CCc1c2c(nc3ccc(O)cc13)-c1cc3c(c(=O)n1C2)COC(=O)[C@]3(O)CC + Nc1ccc(C#CCN(C(=O)Cc2ncc(C(F)(F)F)cc2C(F)(F)F)c2ccc(F)cc2)nn1")
4.56
>>> result_value("O=C(Nc1ccc(O)c(NS(=O)(=O)c2ccc(F)cc2)c1)c1ccc(-c2ccccc2)cc1 + Nc1ccc(C#CCN(C(=O)Cc2ncc(C(F)(F)F)cc2C(F)(F)F)c2ccc(F)cc2)nn1")
95.8
>>> result_value("COc1cc2cc(C(=O)CCC(=O)O)sc2cc1OC + Nc1ccc(C#CCN(C(=O)Cc2ncc(C(F)(F)F)cc2C(F)(F)F)c2ccc(F)cc2)nn1")
94.8
>>> result_value("CC1COCCN1c1cc(C2(O)CC3CCC(C2)O3)c2cnn(-c3ccn[nH]3)c2n1 (stereo unspecified) + Cc1cccc(N(C)C(=O)C2C(O)CCN2c2nc(C)cc(C(F)(F)F)c2C#N)c1")
17.7
>>> result_value("C#Cc1c(F)ccc2cc(O)cc(-c3ncc4c(N5CC6CCC(C5)N6)nc(OCC56CCCN5CC(F)C6)nc4c3F)c12 (stereo unspecified) + Nc1ccc(C#CCN(C(=O)Cc2ncc(C(F)(F)F)cc2C(F)(F)F)c2ccc(F)cc2)nn1")
105
>>> result_value("COc1cc2cc(C(=O)CCC(=O)O)sc2cc1OC + COC1C(OC(N)=O)C(O)C(Oc2ccc3c(O)c(NC(=O)c4ccc(O)c(CC=C(C)C)c4)c(=O)oc3c2C)OC1(C)C")
108
>>> result_value("CNCc1ccc(-c2[nH]c3cc(F)cc4c3c2CCNC4=O)cc1 + Nc1ccc(C#CCN(C(=O)Cc2ncc(C(F)(F)F)cc2C(F)(F)F)c2ccc(F)cc2)nn1")
86.3
>>> result_value("O=C(Nc1ccc(O)c(NS(=O)(=O)c2ccc(F)cc2)c1)c1ccc(-c2ccccc2)cc1 + COC1C(OC(N)=O)C(O)C(Oc2ccc3c(O)c(NC(=O)c4ccc(O)c(CC=C(C)C)c4)c(=O)oc3c2C)OC1(C)C")
93
>>> result_value("CC(C)n1c(=O)n(C)c2cnc3cc(F)c(-c4ccc(OCCCN5CCCCC5)nc4)cc3c21 + Nc1ccc(C#CCN(C(=O)Cc2ncc(C(F)(F)F)cc2C(F)(F)F)c2ccc(F)cc2)nn1")
105

---

// reported viability, T/C per item
Tested on: 429239-143-T-J1-PDC complex spheroid viability
Assay Details: Anticancer human tumor 429239-143-T-J1-PDC cell line growth inhibition [POLQ];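 also: luminescence signal used as surrogate measure of viable cells; spheroids exposed to compounds for seven days before readout; 100% = DMSO vehicle control viability as luminescence relative to vehicle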
Conditions: second compound 0.0316 µM; first compound 0.1 µM; stronger effect = lower value
Endpoint Label: viability, T/C (%)

>>> result_value("COc1cc(C2c3cc4c(cc3C(OC3OC5COC(C)OC5C(O)C3O)C3COC(=O)C23)OCO4)cc(OC)c1O (stereo not drawn) + Nc1ccc(C#CCN(C(=O)Cc2ncc(C(F)(F)F)cc2C(F)(F)F)c2ccc(F)cc2)nn1")
103
>>> result_value("COc1cc(C2c3cc4c(cc3C(OC3OC5COC(C)OC5C(O)C3O)C3COC(=O)C23)OCO4)cc(OC)c1O (stereo not drawn) + Cc1cccc(N(C)C(=O)C2C(O)CCN2c2nc(C)cc(C(F)(F)F)c2C#N)c1")
92.9
>>> result_value("CCc1cc2c(N3CCc4c(cc(Cn5ccnc5)cc4-c4cn(C)nc4C(F)(F)F)C3=O)cc(C)nc2c(OC)n1 + Nc1ccc(C#CCN(C(=O)Cc2ncc(C(F)(F)F)cc2C(F)(F)F)c2ccc(F)cc2)nn1")
94.1

---

Tested on: 429239-143-T-J1-PDC complex spheroid viability
Assay Details: Anticancer human tumor 429239-143-T-J1-PDC cell line growth inhibition [POLQ];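 also: luminescence signal used as surrogate measure of viable cells; spheroids exposed to compounds for seven days before readout; 100% = DMSO vehicle control viability as luminescence relative to vehicle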
Conditions: second compound 0.0316 µM; first compound 0.000316 µM; stronger effect = lower value
Endpoint Label: viability, T/C

>>> result_value("Cn1ncnc1[C@H]1c2n[nH]c(=O)c3cc(F)cc(c23)N[C@@H]1c1ccc(F)cc1 + COC1C(OC(N)=O)C(O)C(Oc2ccc3c(O)c(NC(=O)c4ccc(O)c(CC=C(C)C)c4)c(=O)oc3c2C)OC1(C)C")
"97.7%"
>>> result_value("CC[C@@]1(O)C(=O)OCc2c1cc1n(c2=O)Cc2cc3c(CN(C)C)c(O)ccc3nc2-1 + Cc1cccc(N(C)C(=O)C2C(O)CCN2c2nc(C)cc(C(F)(F)F)c2C#N)c1")
"102%"
>>> result_value("CC[C@@]1(O)C(=O)OCc2c1cc1n(c2=O)Cc2cc3c(CN(C)C)c(O)ccc3nc2-1 + COC1C(OC(N)=O)C(O)C(Oc2ccc3c(O)c(NC(=O)c4ccc(O)c(CC=C(C)C)c4)c(=O)oc3c2C)OC1(C)C")
"102%"
>>> result_value("Cn1ncnc1[C@H]1c2n[nH]c(=O)c3cc(F)cc(c23)N[C@@H]1c1ccc(F)cc1 + Nc1ccc(C#CCN(C(=O)Cc2ncc(C(F)(F)F)cc2C(F)(F)F)c2ccc(F)cc2)nn1")
"101%"
>>> result_value("CC[C@@]1(O)C(=O)OCc2c1cc1n(c2=O)Cc2cc3c(CN(C)C)c(O)ccc3nc2-1 + Nc1ccc(C#CCN(C(=O)Cc2ncc(C(F)(F)F)cc2C(F)(F)F)c2ccc(F)cc2)nn1")
"95.7%"
>>> result_value("Cn1ncnc1[C@H]1c2n[nH]c(=O)c3cc(F)cc(c23)N[C@@H]1c1ccc(F)cc1 + Cc1cccc(N(C)C(=O)C2C(O)CCN2c2nc(C)cc(C(F)(F)F)c2C#N)c1")
"107%"
